# system: UniProt P25103
# procedure.details: Concentration required for displacement of [125I]-labeled substance P from cloned hNK1 receptor expressed in CHO cells(*).
measurement.kind: IC50 (nM)
Use nM as the unit, but write only the number.

Asked: Recorded IC50 of Cn1c(-c2ccccn2)c(CCC(=O)N2CCC(O)(Cc3ccccc3)CC2)c2cc(Cl)ccc21 , please.
Given back: 2.9

Asked: Recorded IC50 of COc1ccccc1N1CCN(C(=O)CCc2c(-c3ccc(C(C)C)cc3)n(C)c3ccc(C)cc23)CC1 , please.
Given back: 0.33

Asked: Recorded IC50 of COc1ccccc1N1CCN(C(=O)CCc2c(-c3ccc(C(F)(F)F)cc3)n(C)c3ccc(C)cc23)CC1 , please.
Given back: 0.14

Asked: Recorded IC50 of COc1ccccc1N1CCN(C(=O)CCc2c(-c3ccc(C(F)(F)F)cc3)[nH]c3ccc(C)cc23)CC1 , please.
Given back: 0.44

====

# system: UniProt:P25103
# procedure.details: Concentration required for displacement of [125I]-labeled substance P from cloned hNK1 receptor expressed in CHO cells(*).
measurement.kind: pIC50
Scale: pIC50 equals -log10([C]), with [C] in mol/L.

// solved cases for pIC50 follow
COc1ccccc1N1CCN(C(=O)CCc2c(-c3ccc(C(C)C)cc3)[nH]c3ccc(C)cc23)CC1 :: 9.70
COc1cccc(-c2[nH]c3ccc(C)cc3c2CCC(=O)N2CCN(c3ccccc3OC)CC2)c1 :: 8.10
COc1ccccc1N1CCN(C(=O)CCc2c(-c3ccc(Cl)cc3)n(Cc3ccccc3)c3ccc(Cl)cc23)CC1 :: 7.02

Asked: Recorded pIC50 of COc1ccccc1N1CCN(C(=O)CCc2c(-c3ccc(Br)cc3)n(C)c3ccc(C)cc23)CC1 , please.
Given back: 9.85

Asked: Recorded pIC50 of COc1ccccc1N1CCN(C(=O)CCc2c(-c3ccc(C(C)(C)C)cc3)[nH]c3ccc(C)cc23)CC1 , please.
Given back: 8.20

Asked: Recorded pIC50 of COc1ccccc1N1CCN(C(=O)CCc2c(-c3ccccc3Br)[nH]c3ccc(C)cc23)CC1 , please.
Given back: 7.05

Asked: Recorded pIC50 of COc1ccccc1N1CCN(C(=O)CCc2c(-c3ccc(Cl)cc3)n(C)c3ccc(Cl)cc23)CC1 , please.
Given back: 9.55

Asked: Recorded pIC50 of Cc1ccc(-c2c(CCC(=O)N3CCC(O)(Cc4ccccc4)CC3)c3cc(Cl)ccc3n2C)cn1 , please.
Given back: 9.92

Asked: Recorded pIC50 of COc1ccccc1N1CCN(C(=O)CCc2c(-c3ccc(Cl)cc3)n(CCO)c3ccc(Cl)cc23)CC1 , please.
Given back: 9.01

Asked: Recorded pIC50 of COc1ccccc1N1CCN(C(=O)CCc2c(-c3ccc(Cl)cc3)n(CC3CC3)c3ccc(Cl)cc23)CC1 , please.
Given back: 6.99

Asked: Recorded pIC50 of Cn1c(-c2cccnc2)c(CCC(=O)N2CCC(O)(Cc3ccccc3)CC2)c2cc(Cl)ccc21 , please.
Given back: 9.04

====

Listed next: entries and their corresponding log10 of IC50.
# system: Substance-P receptor (Homo sapiens)
# Sequence (P25103 whole entry): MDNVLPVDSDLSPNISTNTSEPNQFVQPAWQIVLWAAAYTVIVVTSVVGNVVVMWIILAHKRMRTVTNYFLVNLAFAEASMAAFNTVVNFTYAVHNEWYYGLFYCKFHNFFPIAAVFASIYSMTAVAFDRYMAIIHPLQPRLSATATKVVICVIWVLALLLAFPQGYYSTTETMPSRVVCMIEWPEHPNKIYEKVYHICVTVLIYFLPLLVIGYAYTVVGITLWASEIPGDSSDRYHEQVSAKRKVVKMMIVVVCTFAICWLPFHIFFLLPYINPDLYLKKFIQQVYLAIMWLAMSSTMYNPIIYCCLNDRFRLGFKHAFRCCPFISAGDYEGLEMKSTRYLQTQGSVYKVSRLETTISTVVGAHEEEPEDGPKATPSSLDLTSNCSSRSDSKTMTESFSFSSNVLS
# procedure.details: Concentration required for displacement of [125I]-labeled substance P from cloned hNK1 receptor expressed in CHO cells(*).
Short version: log10 scale, IC50, nM.

// solved cases for log10 of IC50 follow
Cn1c(-c2ccc(C(F)(F)F)cn2)c(CCC(=O)N2CCC(O)(Cc3ccccc3)CC2)c2cc(Cl)ccc21 :: -0.92
COc1ccc(-c2[nH]c3ccc(C)cc3c2CCC(=O)N2CCN(c3ccccc3OC)CC2)cc1 :: 0.18
COC(=O)Cn1c(-c2ccc(Cl)cc2)c(CCC(=O)N2CCN(c3ccccc3OC)CC2)c2cc(Cl)ccc21 :: 1.18
COc1ccccc1N1CCN(C(=O)CCc2c(-c3ccccc3)[nH]c3ccc(C)cc23)CC1 :: 0.79
COc1ccccc1N1CCN(C(=O)CCc2c(-c3ccc(-c4ccccc4)cc3)[nH]c3ccc(C)cc23)CC1 :: 0.88

Asked: Recorded log10 of IC50 of COc1ccccc1N1CCN(C(=O)CCc2c(-c3ccc(Cl)cc3)n(C(C)C)c3ccc(Cl)cc23)CC1 , please.
Given back: 0.72

Asked: Recorded log10 of IC50 of COc1ccccc1N1CCN(C(=O)CCc2c(-c3ccc(Cl)cc3)n(C)c3ccc(C)cc23)CC1 , please.
Given back: -0.96

Asked: Recorded log10 of IC50 of COc1ccccc1-c1[nH]c2ccc(C)cc2c1CCC(=O)N1CCN(c2ccccc2OC)CC1 , please.
Given back: 1.91
